Could you please report measured Th-T fluorescence, mean of three wells (Fig. 7a) for the items listed next?
# ASSAYED_SYSTEM: Aβ42 (Homo sapiens)
# Sequence (P05067 672-713): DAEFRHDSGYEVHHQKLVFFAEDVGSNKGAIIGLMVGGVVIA
# MEASUREMENT_PROTOCOL: Th-T (thioflavin-T) assay of Aβ42 aggregation
# Assay type: biochemical
# CONDITION_PARAMETERS: reading M115; compound at 20 (head suffix _20)
I'd appreciate a reply containing only the number, no unit.

### Prompt So what does the record say about Th-T fluorescence, mean of three wells (Fig. 7a) for C=C1CCC2C(C)(CCC=C(C)C)C(O)CCC2(C)C1Cc1c(OC)oc(CO)c(C(=O)OC)c1=O (centres unmarked) ?
### Response 1.033

### Prompt Entry C=C1CCC2C(C)(CCC=C(C)C)C(O)CCC2(C)C1Cc1c(OC)oc(CO)c(C)c1=O (centres unmarked) has what Th-T fluorescence, mean of three wells (Fig. 7a)?
### Response 2.12

### Prompt So what does the record say about Th-T fluorescence, mean of three wells (Fig. 7a) for C=C1CCC2C(C)(CCC=C(C)C)C(O)CCC2(C)C1Cc1c(OC)oc(C)c(C(=O)OC)c1=O (centres unmarked) ?
### Response 1.649

### Prompt Item under review: C=C1CC[C@@H]2[C@](C)(CC[C@H]3O[C@H](C=C(C)C)C[C@@]23C)[C@@H]1Cc1c(OC)oc(CO)c(C(=O)OC)c1=O . Reported Th-T fluorescence, mean of three wells (Fig. 7a)?
### Response 0.9605

### Prompt Entry under review: C=C1CC[C@@H]2[C@](C)(CC[C@H]3O[C@H](C=C(C)C)C[C@@]23C)[C@@H]1Cc1c(OC)oc(CO)c(C)c1=O . Reported Th-T fluorescence, mean of three wells (Fig. 7a)?
### Response 3.199

----------
# ASSAYED_SYSTEM: Aβ42 (Homo sapiens)
# MEASUREMENT_PROTOCOL: Th-T (thioflavin-T) assay of Aβ42 aggregation
# Format: biochemical
# CONDITION_PARAMETERS: measurement M11; source data, Ab alone and No Ab as controls
condition met if Th-T assay plate reading, mean of three wells (Supplementary Fig. 47) is below 0.8. condition not met if not; exact matches included in condition not met.

### Prompt Check if Th-T assay plate reading, mean of three wells (Supplementary Fig. 47) falls below 0.8 for C=C1CCC2C(C)(CCC=C(C)C)C(O)CCC2(C)C1Cc1c(O)c(C)c(C)oc1=O (stereo not shown) [Compound 9, higginsianin B] .
### Response condition met

### Prompt A record lists C=C1CCC2C(C)(CCC=C(C)C)C(O)CCC2(C)C1Cc1c(OC)oc(C)c(C)c1=O (stereo not shown) [Compound 11] . Is its Th-T assay plate reading, mean of three wells (Supplementary Fig. 47) below 0.8?
### Response condition met

### Prompt Lab note: Th-T assay plate reading, mean of three wells (Supplementary Fig. 47) threshold 0.8. Does this compound come in strictly under it? C=C1CC[C@H]2[C@]3(C)C[C@H](C=C(C)C)O[C@H]3CC[C@]2(C)[C@@H]1Cc1c(OC)oc(C)c(C)c1=O [Compound 24]
### Response condition not met

### Prompt Lab log: compare recorded Th-T assay plate reading, mean of three wells (Supplementary Fig. 47) with 0.8; is it strictly lower for C=C1CC[C@H]2[C@]3(C)C[C@@H](C=C(C)C)O[C@H]3CC[C@]2(C)[C@@H]1Cc1c(O)c(C)c(C)oc1=O [Compound 5, subglutinol A] ?
### Response condition met

### Prompt I'd appreciate it if you could check whether C=C1CCC2C3(C)CC(C=C(C)C)OC3CCC2(C)C1Cc1c(OC)oc(C)c(C)c1=O (stereo not shown) [Compound 23] has Th-T assay plate reading, mean of three wells (Supplementary Fig. 47) smaller than 0.8.
### Response condition not met

### Prompt Lab note: Th-T assay plate reading, mean of three wells (Supplementary Fig. 47) threshold 0.8. Does this compound come in strictly under it? C=C1CCC2C(C)(CCC=C(C)C)C(=O)CCC2(C)C1Cc1c(O)c(C)c(C)oc1=O (stereo not shown) [Compound 8]
### Response condition met

### Prompt Quick check: Th-T assay plate reading, mean of three wells (Supplementary Fig. 47) of C=C1CC[C@@H]2[C@](C)(CC[C@H]3O[C@H](C=C(C)C)C[C@@]23C)[C@@H]1Cc1c(OC)oc(CO)c(C)c1=O [Compound 20] under 0.8?
### Response condition met
